Entry source: PubChem BioAssay

Assay: inhibitors of hydroxyurea-induced Chk1 phosphorylation, primary screen, imaging, HeLa, phospho-Chk1 nuclear intensity (AID 1187); further: test concentration not given here
Conditions: hydroxyurea-induced phospho-Chk1 immunofluorescence imaging, higher = more signal
Threshold check on z-score: at or above 0.04 gives True, strictly below gives False.

## Task Form field: z-score at least 0.04? Entry: CC(C)(C)OC(=O)CC[C@]1(C(=O)NCc2ccccc2)N=C(c2ccc(OCCCO)cc2)O[C@H]1c1ccccc1
## Result False

## Task Given COCCOC(=O)N1C(=O)[C@@]2(c3cc(C#CC4(O)CCCCCC4)ccc31)[C@H](C(=O)N1CCN(c3ncccn3)CC1)[C@H]1C(=O)O[C@H](c3ccccc3)[C@H](c3ccccc3)N1[C@@H]2c1ccc(OCCO)cc1 , state whether its z-score is at least 0.04.
## Result True

## Task For this compound, is measured z-score 0.04 or higher? O=C(CS)NCCCCCNC(=O)[C@H]1C[C@H]2C(=O)N3CCC[C@H]3C(=O)N2[C@H]1c1cccc(OCCO)c1
## Result False

## Task z-score >= 0.04 for O=C1O[C@@H](c2ccccc2)[C@@H](c2ccccc2)N2[C@@H](c3ccc(OCCO)cc3)[C@]3(C(=O)Nc4ccccc43)[C@@H](C(=O)N3CCN(c4ncccn4)CC3)[C@H]12 ?
## Result True

## Task Hi team, for CN(C)CCCNC(=O)[C@@H]1c2ccccc2C(=O)N(Cc2ccccc2)[C@H]1c1ccc(CO)cc1 , is the recorded z-score at or above 0.04?
## Result True

## Task Is it the case that CCCCCN1CC=CC23O[C@@H]4C=CCOC(=O)[C@@H]4[C@H]2C(=O)N(CCCCCCO)[C@@H]3C1=O (some centres not stated) has z-score reaching or exceeding 0.04?
## Result True

## Task Has CCOC(=O)C1=CC[C@H]2C(=O)N(CC)C(=O)[C@@H]12 a recorded z-score greater than or equal to 0.04?
## Result False

====

Test: COS7 lysate on small-molecule microarray, probe aHis, 635 nm (AID 1123);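 further: z-score combines 667nm fluorescence intensity with signal-to-noise per printed compound spot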
Settings: COS7 cell lysate, fluorescence, higher = more signal
# composite z-score >= 0.3 gives true (1), anything below gives false (0)

Solved entries (count: 8):
{"columns": ["compound", "assigned_class"],
 "data": [
  ["COC(=O)CC=C[C@@H](C)[C@H](OC)c1ccccc1Br", "false (0)"],
  ["CC(=O)C[C@H](O)[C@@H](NC(=O)OC(C)(C)C)C(C)C", "false (0)"],
  ["C=C(CCCC)C(=O)CC[C@@H](OC(C)=O)c1cccc(OCCO)c1", "false (0)"],
  ["CC(CCN1CCc2nc(-c3ccccc3)c(-c3ccccc3)cc2C1)=NOC(C)CN1CCCCc2nc(C)c(C)cc21 (stereo not given)", "true (1)"],
  ["CCCNC(=O)[C@@H]1c2ccccc2C(=O)N(Cc2ccccc2Cl)[C@H]1c1ccc(CO)cc1", "true (1)"],
  ["C[C@@H]1C=CCC(=O)OC[C@H](C)C(=O)N[C@@H](C)C(=O)OC1", "false (0)"],
  ["CC(=O)OC[C@H]1O[C@@H](ON=C[C@@H](C)[C@H](OCc2ccccc2)C(C)C)[C@H](OC(C)=O)[C@@H](OC(C)=O)[C@@H]1OC(C)=O", "false (0)"],
  ["COCCOC(=O)N1C(=O)[C@@]2(c3cc(C#Cc4ccc(OC)cc4)ccc31)[C@H](C(=O)N1CCN(c3ncccn3)CC1)[C@H]1C(=O)O[C@H](c3ccccc3)[C@H](c3ccccc3)N1[C@@H]2c1ccc(OCCO)cc1", "true (1)"]
]}

## Task Item NC(=O)NCC#Cc1ccc2c(c1)[C@]1(C(=O)N2)[C@H](c2ccc(O)cc2)N2[C@H](c3ccccc3)[C@H](c3ccccc3)OC(=O)[C@H]2[C@@H]1C(=O)N1CCCCCCC1 with composite z-score of 0.3 or above?
## Result true (1)

## Task # bool: composite z-score of COc1ccc(O[C@H]2C=C[C@@H](c3ccccc3)O[C@@H]2COC(=O)CCC(C)=NOCC[C@@H]2C=C[C@H](OC(C)=O)[C@@H](COC(C)=O)O2)cc1 >= 0.3
## Result true (1)

## Task Is composite z-score for CC(C)[Si]1(C(C)C)O[C@@H](c2ccccc2)c2cc(C3CC3)nc(-c3ccccc3)c21 at or above 0.3?
## Result true (1)

## Task # bool: composite z-score of CC(C)=C1C(=O)C(c2ccccc2)=C2CN3C(=O)N(CCc4ccccc4)C(=O)[C@]3(Cc3ccc(F)cc3)[C@H]21 >= 0.3
## Result true (1)

## Task Does the reported composite z-score for CC(C)CON=C1C[C@@H](O)[C@@H](O)[C@@H]2[C@@H]3C(=O)N(C[C@@H]4CCCO4)C(=O)[C@@H]3CC[C@H]12 fall at or above the 0.3 mark?
## Result true (1)

## Task Is reported composite z-score greater than or equal to 0.3 here: CCOC(=O)[C@H](Cc1ccccc1)NC(=O)CCC1CC(OC(=O)NCc2ccc3c(c2)OCO3)CC2(CCCC(COC(=O)NCC3CCCCC3)O2)O1 (stereo not given in full)
## Result true (1)
